// provenance: paper PMC11926880

- Test Protocol: tissue distribution pharmacokinetics after single i.p. administration
- Type: in vivo, rat
- Applied Conditions: male, Wistar, rat, heart, ip, 1 mg/kg, heart, 1.0 mg/kg i.p.; read-out: Cmax
Quantity Measured: Cmax (ng/g)
// note: answer is a bare numeric in ng/g

Ask: Please give measured Cmax of the following entry: CN1CCN(c2nc(N)nc(C(C)(C)Sc3ccc4ccccc4c3)n2)CC1
Reply: 172

---

- Test Protocol: tissue distribution pharmacokinetics after single i.p. administration
- Assay type: in vivo, rat
- Applied Conditions: male, Wistar, rat, brain/serum, ip, 1 mg/kg, brain-to-serum, 1 mg/kg i.p.; read-out: AUC0–∞ (ng·h/g)/AUC0–∞ (ng·h/mL)
Quantity Measured: Kp
// return just the number, without any unit appended

Ask: Using known records, supply Kp for CN1CCN(c2nc(N)nc(C(C)(C)Sc3ccc4ccccc4c3)n2)CC1 [WA-22]
Reply: 2.14
